src = the supplement of paper PMC9112550

# Tested on: Escherichia coli TOP10
# procedure_summary: shrunken log2 fold change of peptide-encoding DNA abundance (4.5 h post-induction vs induction); higher = less antimicrobial activity (less host growth inhibition)
# stated_conditions: time post-induction: 4.5 h; library: site-saturation at positions 5, 18, 19, 20
Class class 1: shrunken log2 fold change at least -0.06. Class class 0: shrunken log2 fold change below -0.06.

[
  {
    "sequence_text": "RRIRVRPPRLPRPRPRPGNLPRP",
    "tgt": "Escherichia coli TOP10",
    "label_value": "class 0"
  },
  {
    "sequence_text": "RRIRIRPPRLPRPRPRPDLQPRP",
    "tgt": "Escherichia coli TOP10",
    "label_value": "class 1"
  },
  {
    "sequence_text": "RRIRPRPPRLPRPRPRPVQCPRP",
    "tgt": "Escherichia coli TOP10",
    "label_value": "class 0"
  },
  {
    "sequence_text": "RRIRPRPPRLPRPRPRPNLFPRP",
    "tgt": "Escherichia coli TOP10",
    "label_value": "class 1"
  },
  {
    "sequence_text": "RRIRQRPPRLPRPRPRPTGHPRP",
    "tgt": "Escherichia coli TOP10",
    "label_value": "class 1"
  },
  {
    "sequence_text": "RRIRNRPPRLPRPRPRPCVMPRP",
    "tgt": "Escherichia coli TOP10",
    "label_value": "class 1"
  }
]

query: Is it the case that `RRIRCRPPRLPRPRPRPFHMPRP` has shrunken log2 fold change reaching or exceeding -0.06?
result: class 0

query: Quick check: does `RRIRDRPPRLPRPRPRPRVDPRP` have shrunken log2 fold change greater than or equal to -0.06?
result: class 1

query: API: above_or_equal(metric=shrunken log2 fold change, cutoff=-0.06) for item `RRIRRRPPRLPRPRPRPVTVPRP`
result: class 1

query: # check: shrunken log2 fold change of `RRIRIRPPRLPRPRPRPFCKPRP` is greater than or equal to -0.06
result: class 0

----------
# System: Escherichia coli TOP10
# procedure_summary: shrunken log2 fold change of peptide-encoding DNA abundance (4.5 h post-induction vs induction); higher = less antimicrobial activity (less host growth inhibition)
# stated_conditions: time post-induction: 4.5 h; library: site-saturation at positions 5, 18, 19, 20
observed_property: shrunken log2 fold change
Give bare numbers.

Dear reader, for each entry below, please note its shrunken log2 fold change.
1. RRIRIRPPRLPRPRPRPWTNPRP
2. RRIRNRPPRLPRPRPRPGEWPRP

result:
1. -0.00152
2. 0.00667

# per-item lookup of shrunken log2 fold change; items listed below
1. RRIRQRPPRLPRPRPRPQNQPRP
2. RRIRSRPPRLPRPRPRPAHTPRP
3. RRIRQRPPRLPRPRPRPELNPRP
4. RRIRCRPPRLPRPRPRPSNLPRP
5. RRIRNRPPRLPRPRPRPSISPRP
6. RRIRERPPRLPRPRPRPNFAPRP

result:
-0.17
-0.379
0.0915
-0.425
-0.256
0.387

----------
Exercise: state measured shrunken log2 fold change for each of the sequences provided.
# System: Escherichia coli TOP10;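 further: peptides expressed intracellularly from a pBAD plasmid library in pooled LB shake-flask culture, induced with 0.3% L-arabinose, DNA abundance read by NGS, three biological replicates, DESeq2 with apeglm shrinkage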
# procedure_summary: shrunken log2 fold change of peptide-encoding DNA abundance (4.5 h post-induction vs induction); higher = less antimicrobial activity (less host growth inhibition)
# stated_conditions: time post-induction: 4.5 h; library: site-saturation at positions 5, 18, 19, 20
Numbers only.

[
  {
    "sequence_text": "RRIRKRPPRLPRPRPRPYDNPRP",
    "tgt": "Escherichia coli TOP10",
    "shrunken log2 fold change": 0.0185
  },
  {
    "sequence_text": "RRIRPRPPRLPRPRPRPNFPPRP",
    "tgt": "Escherichia coli TOP10",
    "shrunken log2 fold change": 0.0652
  },
  {
    "sequence_text": "RRIRARPPRLPRPRPRPHFYPRP",
    "tgt": "Escherichia coli TOP10",
    "shrunken log2 fold change": 0.107
  }
]

// each sequence listed below needs its shrunken log2 fold change
1. RRIRKRPPRLPRPRPRPNTMPRP
2. RRIRERPPRLPRPRPRPWDFPRP

result:
1. -0.209
2. 0.0275

I would be grateful if you could provide shrunken log2 fold change for each of the following entries.
1. RRIRHRPPRLPRPRPRPATSPRP
2. RRIRSRPPRLPRPRPRPQYTPRP
3. RRIRERPPRLPRPRPRPMAVPRP
4. RRIRSRPPRLPRPRPRPGHEPRP

result:
1. -0.00994
2. -0.983
3. 0.19
4. 0.101

For every listed record, write down its shrunken log2 fold change.
1. RRIRPRPPRLPRPRPRPREKPRP
2. RRIRARPPRLPRPRPRPQLNPRP
3. RRIRRRPPRLPRPRPRPPTLPRP
4. RRIRSRPPRLPRPRPRPLAKPRP
5. RRIRVRPPRLPRPRPRPYLNPRP
6. RRIRMRPPRLPRPRPRPGPWPRP
7. RRIRLRPPRLPRPRPRPCARPRP

result:
[0.489, -0.0125, 0.739, 0.358, -0.16, 0.89, 0.0322]

Each sequence below has a recorded value; state its shrunken log2 fold change.
1. RRIRMRPPRLPRPRPRPLKLPRP
2. RRIRMRPPRLPRPRPRPPIMPRP
3. RRIRGRPPRLPRPRPRPLDIPRP

result:
1: 0.0525; 2: 0.0866; 3: -0.0476

I would be grateful if you could provide shrunken log2 fold change for each of the following entries.
1. RRIRSRPPRLPRPRPRPMWLPRP
2. RRIRIRPPRLPRPRPRPANCPRP
3. RRIRDRPPRLPRPRPRPHIDPRP

result:
1: 0.0415; 2: -1.1; 3: -0.0782

Hi there! I need shrunken log2 fold change for each item below, if you can.
1. RRIRKRPPRLPRPRPRPVMWPRP
2. RRIRYRPPRLPRPRPRPNLAPRP
3. RRIRMRPPRLPRPRPRPHWFPRP
4. RRIRTRPPRLPRPRPRPDWVPRP
5. RRIRLRPPRLPRPRPRPFFGPRP
6. RRIRQRPPRLPRPRPRPHLWPRP
7. RRIRHRPPRLPRPRPRPFENPRP

result:
[-0.221, -0.0223, 0.0685, 0.0189, 0.246, 0.0824, -0.0293]

Please state shrunken log2 fold change for every sequence in the list that follows.
1. RRIRLRPPRLPRPRPRPLGIPRP
2. RRIRPRPPRLPRPRPRPTWPPRP

result:
-0.199
0.47

For each of the items listed, what is its shrunken log2 fold change?
1. RRIRIRPPRLPRPRPRPLPIPRP
2. RRIRKRPPRLPRPRPRPCDCPRP
3. RRIRSRPPRLPRPRPRPFMTPRP

result:
-0.0341
-0.0743
-0.328
